Target: DNA topoisomerase 1 (Homo sapiens)
Experiment: Inhibition of human recombinant topoisomerase-1 assessed as conversion of super-coiled plasmid DNA pBR322 to relaxed DNA at 100 uM after 30 mins by ethidium bromide staining-based agarose gel electrophoresis (reference value: 62.9%)
# label = MET if inhibition >= 5% else NOT MET

1. c1ccc(-c2cc(-c3ccco3)nc3c2Cc2ccccc2-3)nc1
MET
2. c1ccc(-c2cc(-c3cccs3)nc3c2Cc2ccccc2-3)cc1
MET
3. c1ccc(-c2cc(-c3cccs3)nc3c2Cc2ccccc2-3)nc1
NOT MET
4. c1csc(-c2cc(-c3cccs3)c3c(n2)-c2ccccc2C3)c1
NOT MET
5. c1ccc2c(c1)Cc1c(-c3ccsc3)cc(-c3ccsc3)nc1-2
MET
6. c1csc(-c2cc(-c3ccsc3)nc3c2Cc2ccccc2-3)c1
NOT MET
7. c1coc(-c2cc(-c3ccoc3)c3c(n2)-c2ccccc2C3)c1
MET
8. c1ccc(-c2cc(-c3ccsc3)nc3c2Cc2ccccc2-3)cc1
NOT MET
9. c1csc(-c2cc(-c3ccsc3)c3c(n2)-c2ccccc2C3)c1
MET
10. c1ccc(-c2cc(-c3ccsc3)c3c(n2)-c2ccccc2C3)nc1
NOT MET
11. c1ccc(-c2cc(-c3ccsc3)nc3c2Cc2ccccc2-3)nc1
NOT MET

Source of measurements: ChEMBL document CHEMBL3351359
